Source: the supplement of paper PMC10201428

Provide the recorded relative integration efficiency (log2) for the entries that follow.
# Test system: VchCAST RNA-guided transposition machinery (E. coli BL21(DE3) host, lacZ target)
# Procedure details: relative integration efficiency (T-RL orientation) vs wild-type transposon end (log2 (normalized fold change)); transposon end mutated: left end; higher = more efficient transposition
Respond with the number and no other words.

Give reported relative integration efficiency (log2) value for AATGTTGTTGATGTGTTGACAACCATAAAGTGATATTTAATAATTATTTATAATCAGCAACTTAACCACAAAACAACCATATATTGATATCTCACAAAACAACCATAAGTTGATATTTTTGTGAATCGAGTATTTCAGCAAAACTACTGCAG
-2.23

Give reported relative integration efficiency (log2) value for AATGTTGTTGATGCAACCATAAAGTGATATTTAAATTGTGAGCGGATAACAATTCTTAACCACAAAACAACCATATATTGATATCTCACAAAACAACCATAAGTTGATATTTTTGTGAATCGAGTATTTCAGCAAAACTACTGCAGTAAGAA
-3.08

Give reported relative integration efficiency (log2) value for TTTTGTGTTGAAACAACCATAAAGTGATAACAAATAATTATTTATAATCAGCAACTTAACCACAAAACAACCATATCTTGATATCGCATAAAACAACCATAAGTTGATATTTTGGTGAAAAGGATATTCCAACCTTCATAGTTTAGTAAGAA
-0.416

Give reported relative integration efficiency (log2) value for AATGTTGTTGATGCAACCATAAAGTGATATTTAATAATTATTTATAATCAGCAACTTAACCACAACCATATATTGATATCTCCAAAAACAAAACAACCATAAGTTGATATTTTTGTGAATCGAGTATTTCAGCAAAACTACTGCAGTAAGAA
-3.07

---

# Test system: VchCAST RNA-guided transposition machinery (E. coli BL21(DE3) host, lacZ target)
# Procedure details: relative integration efficiency (T-RL orientation) vs wild-type transposon end (log2 (normalized fold change)); transposon end mutated: right end (5 bp flank + 75 bp right end); higher = more efficient transposition
Provide the recorded relative integration efficiency (log2) for the entries that follow.
Respond with the number and no other words.

Give reported relative integration efficiency (log2) value for ACATTTGTTGATCCAACCATAAAATGATAATTACACCCATAAATTCATCATTATCACACCCAATTTAACTATAACGCTCTGATCATAGTCAGACCAACATTGCTACGACCCGTATTCGCACCGACAC
-2.42

Give reported relative integration efficiency (log2) value for ACATTTGTTGATACAACCATAAAATGATATTTACACCCATAAATTGATATTTATCACACCCATAAATTGATAATGCCTCTGATCATAGTCAGACCAACATTGCTACGACCCGTATTCGCACCGACAC
-0.257

Give reported relative integration efficiency (log2) value for ACATTTGTTGATACAACCATAAAATGATAATATCACCCATAAATTGATAATATTCACACCCATAAATTGATATTCGCTCTGATCATAGTCAGACCAACATTGCTACGACCCGTATTCGCACCGACAC
-0.471

---

# Test system: VchCAST RNA-guided transposition machinery (E. coli BL21(DE3) host, lacZ target)
# Procedure details: relative integration efficiency (T-RL orientation) vs wild-type transposon end (log2 (normalized fold change)); transposon end mutated: left end; higher = more efficient transposition
Endpoint label: relative integration efficiency (log2)
Respond with the number and no other words.

Give reported relative integration efficiency (log2) value for AATGTTGTTGATGCAACCATAAAGTGATATTTAATAATTATTTCGCCGACTACCAGGCCAACACCCCACCAACGCGCGGTCGCGAGACACCCCACCAACGCCTGGTCGCGGGGGTGTCCGATCTGATTTCAGCAAAACTACTGCAGTAAGAA
-7.27

Give reported relative integration efficiency (log2) value for AATGTTGTTGATGGTTGGTATTTCACTATAAATATAATTATTTATAATCAGCAACTTAACCACAAAAGTTGGTATATAACTATAGAGACAAAACAACCATAAGTTGATATTTTTGTGAATCGAGTATTTCAGCAAAACTACTGCAGTAAGAA
-8.28

Give reported relative integration efficiency (log2) value for AATGTTGTTGATGCACCCATAAATTGATAATTAATAATTATTTATAATCAGCAACTTAACCACAAAACAACCATATATTGATATCTCACAAAAGTTGGTATTCAACTATAAAATGTGAATCGAGTATTTCAGCAAAACTACTGCAGTAAGAA
-2.76

Give reported relative integration efficiency (log2) value for AATGTTGTTGATGCAACCATAAAGTGATATTTGCTAGCACTATACCTAGGACTGAGCTAGCCGTCAACAACCATATATTGATATCTCACAAAACAACCATAAGTTGATATTTTTGTGAATCGAGTATTTCAGCAAAACTACTGCAGTAAGAA
-5.87

Give reported relative integration efficiency (log2) value for AATGTTGTTGATGCAACCATAAAGTGATATTTAATAATTACAACCATAAAGTGATATTTAACTTAACCAACCATATATTGATATCTCACAAAACAACCATAAGTTGATATTTTTGTGAATCGAGTATTTCAGCAAAACTACTGCAGTAAGAA
-7.98

Give reported relative integration efficiency (log2) value for AATGTTGTTGATGCAACCATAAAGTGATATTTAATCAACCATATATTGATATCTCAATTATTTATAATCAGCAACTTAACCACAAAAACAAAACAACCATAAGTTGATATTTTTGTGAATCGAGTATTTCAGCAAAACTACTGCAGTAAGAA
-2.99

Give reported relative integration efficiency (log2) value for AATGTTGTTGATGCAACCATAAAGTGATATTTAAGCTATACTCTAGGTATCTAACTTGTCCCATTGCCAACCATATATTGATATCTCACAAAACAACCATAAGTTGATATTTTTGTGAATCGAGTATTTCAGCAAAACTACTGCAGTAAGAA
-4.82

Give reported relative integration efficiency (log2) value for AATGTTGTTGATGCAACCATAAAGTGATATTTAATAATTATTTATAATCAGCAACTTAACCACAAAACAACCATATATGTCGCGAGACACCCCACCAACGCCTGGTCGCGGGGGTGTCCGATCTGATTTCAGCAAAACTACTGCAGTAAGAA
-6.15

Give reported relative integration efficiency (log2) value for TTTTGTGTTGAAACAACCATAAAGTGATAACAACGAATCAATTAAAATCATAGGCTTAATCGAAAAACAACCATATCTTGATATCGCATAAAACAACCATAAGTTGATATTTTGGTGAAAAGGATATTCCAACCTTCATAGTTTAGTAAGAA
-0.363

---

# System: VchCAST RNA-guided transposition machinery (E. coli BL21(DE3) host, lacZ target)
# Procedure details: relative integration efficiency (T-RL orientation) vs wild-type transposon end (log2 (normalized fold change)); transposon end mutated: right end (5 bp flank + 75 bp right end); higher = more efficient transposition
Entry flag: rule met if relative integration efficiency (log2) reaches -2; rule not met if it does not.

Answer whether relative integration efficiency (log2) of ACATTTGTTCATACAACCCTAAAATGATAATTACACCCATAAATTCATCATTATCACCCCCAATTTAACTATAACGCTCTGATCATAGTCAGACCAACATTGCTACGACCCGTATTCGCACCGACAC is greater than or equal to -2.
rule not met

Answer whether relative integration efficiency (log2) of ACATTTGTTGATACAACCATAAAATGATAATTACTCTGACACCCATAAATTGATAATTATCACACCCATAAATTGATATTGCTCATAGTCAGACCAACATTGCTACGACCCGTATTCGCACCGACAC is greater than or equal to -2.
rule not met

Answer whether relative integration efficiency (log2) of ACATTTGTTGATACACCCATAAATTGATAATTACAACCATAAAGTGATATTTATCAGTGGGTATTTAACTATAACGCTCTGATCATAGTCAGACCAACATTGCTACGACCCGTATTCGCACCGACAC is greater than or equal to -2.
rule met

Answer whether relative integration efficiency (log2) of ACATTTGTCGATACAACCATAAAATGATAATTACACCCATAAATTCATAATTATCACACCCAATTTAACTATAACGCTCTGATCATAGTCAGACCAACATTGCTACGACCCGTATTCGCACCGACAC is greater than or equal to -2.
rule met

Answer whether relative integration efficiency (log2) of TGTATTGTTGATACAACCATAAAATGATAATTACACCCATAAATTGATAATTATCACACCCATAAATTGATATTGCCTCTGATCATAGTCAGACCAACATTGCTACGACCCGTATTCGCACCGACAC is greater than or equal to -2.
rule met

Answer whether relative integration efficiency (log2) of ACATTTGTTCATACAACCCTAAAATGATAATTACACCCATAAATTCATCATTATCACACCCAATTTAACTATAACGCTCTGATCATAGTCAGACCAACATTGCTACGACCCGTATTCGCACCGACAC is greater than or equal to -2.
rule not met

Answer whether relative integration efficiency (log2) of ACATTTGTTGATACAACCATAAAATGATAATTAATAATTATTTATAATCAGCAACTTAACCCACCCATAAATTGATAATTATCACACCCATAAATTGATATTGCCTCTGATCATAGTCAGACCAACA is greater than or equal to -2.
rule not met

Answer whether relative integration efficiency (log2) of ACATTTGTTGATACAACCATAAAATGATAATTACTCTGATCATAGTCAGACCAACATTGCTACGACCCGTATTCGCACCGACACACCCATAAATTGATAATTATCAGTGGGTATTTAACTATAACGC is greater than or equal to -2.
rule met

Answer whether relative integration efficiency (log2) of ACATTTGTTGATACAACCATAAAATGATAATTACACCCATCCCGTGATAATTATCACACCCATAAATTGATATTGCCTCTGATCATAGTCAGACCAACATTGCTACGACCCGTATTCGCACCGACAC is greater than or equal to -2.
rule met
